Source: PubChem BioAssay AID1159580

assay: chemical genetic growth profiling, strain panel (AID 1159580);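 further: tested at 20 µM; growth read once vehicle control cultures reached saturation at 30 °C; lower values mean less growth of the strain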; conditions: S. cerevisiae deletion strains, growth OD, locus YDR297W, strain sur2
Out of some 5,500 compounds screened, about 2,000 (36%) were called active. Roughly 18% stayed inconclusive and do not appear here. No stated cut-off is given here; in the data, active means normalized growth mostly below about 0.91 (no sharp cut-off); inconclusive means no clear call, values can overlap the other calls; inactive means mostly above about 0.92. This is one part of the list. *1 amine or outer side, *2 acyl side, *3 side chain or, on linkers, in order; H or OH if unused. Where a SMILES comes first, the peptide text is derived from it. Bridges are numbered along the chain shown (N, C = ends). [ ]: non-standard residue; d: D form. The star is where a group is joined. ξ: configuration not given here. ΔAla(E,3-NHCONH2) = NC(=O)N/C=C(/N)C(=O)O; X2 = NC1=NCCC(C(N[*:1])C(=O)[*:2])N1; ξβ3hOrn = NCCCC(N)CC(=O)*; Dap = NC[CH](N)C(=O)O
Pick from YES (active), NO (inactive) when you respond.

Problem: Name the outcome recorded for NCCCC(N)CC(=O)NCC1NC(=O)C(CO)NC(=O)C(N)CNC(=O)C(C2CCN=C(N)N2)NC(=O)/C(=C\NC(N)=O)NC1=O (stereo not drawn) (H-[Dap]S[Dap](ξβ3hOrn)[ΔAla(E,3-NHCONH2)][X2]; lactam 1-C; configuration not given here) in the assay.
Result: NO

---
Problem: // return assay outcome for COc1ccc2c(c1)[C@]13CCCC[C@H]1[C@H](C2)N(C)CC3
Result: NO

Problem: And what about the molecule NCCc1c[nH]c2ccccc12 ?
Result: NO
